test: yeast display, Sf9 membrane polyspecificity reagent, FACS + sequencing; frameworks hold sequencing errors
readoutLabel: polyreactivity (PSR sort gate)

Some solved cases for reference:
querySequence: QVQLVESGGGLVQAGGSLRLSCAASGGTFYYYAMGWYRQAPGKERELVAAITRSGGNTYYADSVKGRFTISRDNAKNTVYLQMNSLKPEDTAVYYCAAPFVKFVGSLVYAGYDSWGQGTQVTVSS
val: low polyreactivity
//
querySequence: QVQLVESGGGLVQAGGSLRLSCAASGFIYDYAMGWYRQAPGKEREFVARINWSGGSTYYADSVKGRFTISRDNAKNTVYLQMNSLKPEDTAVYYCATSGWAWRSSNPYEYWGQGTQVTVSS
val: low polyreactivity
//
querySequence: QVQLVESGGGLVQAGGSLRLSCAASGRTLQHYAMGWYRQAPGKERELVAGITKNGGSTYYADSVKGRFTISRDNAKNTVYLQMNSLKPEDTAVYYCAKRWGGYSIPLDYDYWGQGTQVTVSS
val: low polyreactivity
//
querySequence: QVQLVESGGGLVQAGGSLRLSCAASGSTSARYAMGWYRQAPGKERELVATITRSGTTKYADSVKGRFTISRDNAKNTVYLQMNSLKPEDTAVYYCNSDTYFPLYDYWGQGTQVTVSS
val: low polyreactivity
//
querySequence: QVQLVESGGGLVQAGGSLRLSCAASGSIFEEYAMGWYRQAPGKERELVARIDESGGSTYYADSVKGRFTISRDNAKNTVYLQMHSLKPEDSAVYYCAAVVTAQAYAYFTYGYDYWGQGTQVTVSS
val: low polyreactivity
//
querySequence: QVQLVESGGGLVQAGGSLRLSCAASGFTLGRYAMGWYRQAPGKERELVAAITGRGGTTYYADSVKGRFRISRDNAKNTVYLQMNSLKPEDTAVYYCAADTKLSYQWFDYWGQGTQVTVSS
val: high polyreactivity
//
querySequence: QVQLVESGGGLVQAGGSLRLSCAASRFTIIPYDMGRYRQAPGKERELVATISRGGSTNYADSVKGRFTISRENAKNTVYLQMNSLKPEDTAVYYCAAEYKVVFSQPYCEYDYWGQGTQVTVSS
val: low polyreactivity
//
querySequence: QVQLVESGGGLVQAGGSLRLSCAASGSTFDYYTMGWYRQAPGKERELVAAITSGGSTYYADSVKGRFTISRDNAKNTVFLQMNSLKPEDTAVYYCAAGYIWFRKFQFDYWGQGTQVTVSS
val: high polyreactivity

Give the measured polyreactivity (PSR sort gate) of QVQLVESGGRLFQAGGSLRLSCPASGFTFVYNAMGWYRQAPGKERELVATISSGGGRTYYADSVKGRFTISGDNAKNTVSLQKYSQKPEDTAVYYCATVRRTSSGERHEFWGQGTQVTVSS .
low polyreactivity

I have this sequence here, QVQLVESGGGLVQAGASLRLSCAASGYIFVRYAMGWYRQAPGKEREFVAAISSSGGSTRYADSVKVRFTISRDNAKNTVYLQMNSLKPEDTAVYYCAATRVARHGSPMYYWGQGTKVTVSS , and I need its recorded polyreactivity (PSR sort gate).
high polyreactivity

Any idea what its polyreactivity (PSR sort gate) is? The sequence is QVQLVESGGGLVQAGGSLRLSCAASGSTFFYYAMGWYRQAPGKERELVATIRGSAGRTYYADSVKGRFTISRDNAKNTVYLQMNSLKPEDTAVYYCARRYWPGSAYWIYDYWGQGTQVTVSS
high polyreactivity

Could you tell me which polyreactivity (PSR sort gate) is on file for QVQLVESGGGLVQAGGSLRLSCAASGFTFYHYAMGWYRQAPGKEREFVAAISASGGSTYYADSVKGRFTISRDNAKNTVYLQMNSLKPEDTAVYYCNARYYYFSVRYKYDFNYWGQVTQVTVSS ?
high polyreactivity

Using the record for QVQLVESGGGLVQAGGSLRLSCAASGLIFHQYAMGWYRQAPGKERELVAAITRSGTRTYYADSVKGRFTISRDNAKNTVYLQMNSLKPEDTAVYYCNKALRTYPLFYYWGQGTQVTVSS , report its polyreactivity (PSR sort gate).
high polyreactivity

Values compiled from the nanobody polyreactivity screen of Harvey et al. (2022).
